- TARGET SYSTEM: Gonadotropin-releasing hormone receptor (Rattus norvegicus) (UniProt P30969)
- Sequence (P30969 whole entry, looked up): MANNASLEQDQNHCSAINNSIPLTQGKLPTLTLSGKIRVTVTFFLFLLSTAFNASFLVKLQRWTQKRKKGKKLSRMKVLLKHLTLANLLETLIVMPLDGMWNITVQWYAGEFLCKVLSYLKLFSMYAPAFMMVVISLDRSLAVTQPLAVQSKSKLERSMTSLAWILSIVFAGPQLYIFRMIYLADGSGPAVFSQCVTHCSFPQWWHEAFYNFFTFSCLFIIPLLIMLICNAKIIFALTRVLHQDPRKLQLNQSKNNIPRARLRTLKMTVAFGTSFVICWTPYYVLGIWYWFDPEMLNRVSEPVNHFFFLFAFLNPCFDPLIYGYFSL
- ASSAY: Antagonist activity at LH-RH receptor in rat pituitary gland assessed as inhibition of LH-RH-induced luteinizing hormone release
Square brackets hold non-standard residues; d marks the D form. Peptide text beside a SMILES is read from it. pGlu = O=C1CC[C@@H](C(=O)O)N1
MEASUREMENT NAME: MED

1. CC(C)C[C@H](NC(=O)CNC(=O)[C@H](Cc1ccc(O)cc1)NC(=O)[C@H](CO)NC(=O)[C@H](CC(C)C)NC(=O)[C@H](CC(C)C)NC(=O)[C@@H]1CCC(=O)N1)C(=O)N[C@@H](CCCNC(=N)N)C(=O)N1CCC[C@H]1C(=O)NCC(N)=O ([pGlu]LLSYGLRPG-NH2); 100 µg/mL

In the following, a different molecule is considered.
QUERY: So what does the record say about MED for CC(C)C[C@H](NC(=O)[C@@H](NC(=O)[C@@H]1CCC(=O)N1)C(C)C)C(=O)N[C@@H](CO)C(=O)N[C@@H](Cc1ccc(O)cc1)C(=O)N[C@H](C)C(=O)N[C@@H](CC(C)C)C(=O)N[C@@H](CCCNC(=N)N)C(=O)N1CCC[C@H]1C(=O)NCC(N)=O ?
RESULT: 10 µg/mL

Ref: ChEMBL document CHEMBL3272113
